# TEST SUMMARY: Plasma pharmacokinetics of ALM201 in Phase I patients (validated LC-MS/MS, Phoenix WinNonlin)
# MEASUREMENT SETUP: human, plasma, sc, 10 mg, Plasma concentration, geometric mean (CV%), 10 mg SC, day 3 cycle 1, 0.5 h after dosing, n = 1; LC-MS/MS
No end group written: not given here.
TEST READOUT: level at 0.5 h (ng/mL)
Give the value in ng/mL but do not write ng/mL after it.

Query block: Value lookup for level at 0.5 h; key = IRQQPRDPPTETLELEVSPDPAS [ALM201]
Result block: 406

###

# TEST SUMMARY: Plasma pharmacokinetics of ALM201 in Phase I patients (validated LC-MS/MS, Phoenix WinNonlin)
# MEASUREMENT SETUP: human, plasma, sc, 160 mg, Plasma concentration, geometric mean (CV%), 160 mg SC, day 1 cycle 1, 4 h after dosing, n = 3; LC-MS/MS
No end group written: not given here.
TEST READOUT: level at 4 h (ng/mL)
Please state the figure in ng/mL; there is no need to write the unit.

Query block: Item under review: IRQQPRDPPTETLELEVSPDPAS [ALM201] . Reported level at 4 h?
Result block: 866
